Target: P2X7 (Homo sapiens)
Sequence (Q99572 1-595): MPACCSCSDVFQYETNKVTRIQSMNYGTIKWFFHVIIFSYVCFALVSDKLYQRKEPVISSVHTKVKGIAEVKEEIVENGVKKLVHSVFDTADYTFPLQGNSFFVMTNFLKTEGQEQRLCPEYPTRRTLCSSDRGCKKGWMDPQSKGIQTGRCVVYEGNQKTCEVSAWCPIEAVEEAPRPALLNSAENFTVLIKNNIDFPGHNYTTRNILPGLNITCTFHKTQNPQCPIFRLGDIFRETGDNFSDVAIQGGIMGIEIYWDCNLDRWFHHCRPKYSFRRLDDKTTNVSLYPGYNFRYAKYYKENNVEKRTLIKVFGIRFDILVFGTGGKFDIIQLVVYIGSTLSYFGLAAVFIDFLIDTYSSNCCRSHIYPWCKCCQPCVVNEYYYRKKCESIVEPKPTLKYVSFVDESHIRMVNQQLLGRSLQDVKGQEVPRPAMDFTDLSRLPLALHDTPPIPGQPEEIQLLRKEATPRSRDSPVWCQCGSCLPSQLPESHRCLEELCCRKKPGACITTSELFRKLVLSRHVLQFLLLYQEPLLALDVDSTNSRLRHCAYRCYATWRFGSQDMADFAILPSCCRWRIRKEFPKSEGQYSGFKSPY
Assay: Pore permeation assay (YO PRO dye uptake, BzATP-induced)
Type: cell-based
Parameters: expressed in transfected cells; host or cells: HEK293
Conditions: HEK293 transfected with human P2X7 receptor, BzATP 10 uM, read-out: hP2X7 IC50
pIC50: −log10 of the molar value.
This listing pairs compounds with measured pIC50.
quantity: pIC50

compound=O=C(NCC1CCCCCC1)c1cc(CCO)n2cccc(Cl)c12 result="7.00 to 8.00"
compound=COCCc1cc(C(=O)NCc2cccc(C(F)(F)F)c2Cl)c2c(Cl)cccn12 result="6.30 to 7.00"
compound=COCCc1cc(C(=O)NCC2(O)CCC(F)(F)CC2)c2c(C(F)(F)F)cccn12 result="6.30 to 7.00"
compound="C[C@@H]1CCC[C@](O)(CNC(=O)c2cc(C3CCOC3)n3cccc(Cl)c23)C1 (some centres unmarked)" result="7.00 to 8.00"
compound=C[C@@H]1CCC[C@](O)(CNC(=O)c2cc(C3CCC3)n3cccc(Cl)c23)C1 result="7.00 to 8.00"
compound="O=C(NCC1(O)CCCC(C(F)(F)F)C1)c1cc(C2CCOC2)n2cccc(Cl)c12 (centres unmarked)" result="< 6.00"
compound="O=C(NCC1(O)CCC(F)(F)CC1)c1cc(CC2CCOC2)n2cccc(Cl)c12 (centres unmarked)" result="7.00 to 8.00"
compound="CC1CC(O)(CNC(=O)c2cc(C3CCOCC3)n3cccc(Cl)c23)CCC1(F)F (centres unmarked)" result="6.30 to 7.00"
compound=CCOCCc1cc(C(=O)NCC2CCC(F)(F)CC2)c2c(Cl)cccn12 result="6.30 to 7.00"
compound="O=C(NCC1(O)CCCC(F)(F)C1)c1cc(CCO)n2cccc(Cl)c12 (centres unmarked)" result="7.00 to 8.00"
compound=O=C(NCC1CCC(F)(F)CC1)c1cc(CCO)n2cccc(Cl)c12 result="7.00 to 8.00"
compound=O=C(NCC1CCC(F)(F)CC1)c1cc(I)n2cccc(Cl)c12 result="6.30 to 7.00"
compound="O=C(NCC1CCC(F)(F)CC1)c1cc(C2CCCO2)n2cccc(Cl)c12 (centres unmarked)" result="7.00 to 8.00"
compound=COCCc1cc(C(=O)NCC2CCCCC2)c2c(Cl)cccn12 result="7.00 to 8.00"
compound="CCOCCc1cc(C(=O)NCC2(O)CCCC(F)(F)C2)c2c(Cl)cccn12 (centres unmarked)" result="7.00 to 8.00"
compound="COCCc1cc(C(=O)NCC2(O)CCCC(F)(F)C2)c2c(Cl)cccn12 (stereo in doubt) [Compound 63]" result="> 8.00"
compound="CC1CC(O)(CNC(=O)c2cc(C3CCC3)n3cccc(Cl)c23)CCC1(F)F (centres unmarked)" result="6.30 to 7.00"
compound=COCCc1cc(C(=O)NC[C@@]2(O)CCC[C@@H](C)C2)c2c(Cl)cccn12 result="7.00 to 8.00"
compound="O=C(NCC1(O)CCC(F)(F)CC1)c1cc(C2CCOC2)n2cccc(Cl)c12 (centres unmarked)" result="7.00 to 8.00"
compound=COCCc1cc(C(=O)NC[C@@]2(O)CCC[C@@H](C)C2)c2c(C(F)(F)F)cccn12 result="7.00 to 8.00"
compound=COCCc1cc(C(=O)NC[C@@]2(O)CCC[C@@H](C)C2)c2c(C)cccn12 result="7.00 to 8.00"
compound=O=C(NCC1CCCCC1)c1cc(CCO)n2cccc(Cl)c12 result="6.30 to 7.00"
compound=COCCc1cc(C(=O)NCC2(O)CCCCCC2)c2c(Cl)cccn12 result="7.00 to 8.00"
compound="COCCc1cc(C(=O)NCC2CCCC3(CC3)C2)c2c(Cl)cccn12 (centres unmarked)" result="> 8.00"
compound="COCCc1cc(C(=O)NCC2CCC(F)(F)C(C)C2)c2c(Cl)cccn12 (centres unmarked)" result="> 8.00"
compound=O=C(NCC1CCC(F)(F)CC1)c1cc(CCF)n2cccc(Cl)c12 result="7.00 to 8.00"
compound=CCOCCc1cc(C(=O)NCC2(O)CCC(F)(F)CC2)c2c(Cl)cccn12 result="6.30 to 7.00"
compound="O=C(NCC1(O)CCC(F)(F)CC1)c1cc(C2CCCO2)n2cccc(Cl)c12 (centres unmarked)" result="7.00 to 8.00"
compound="O=C(NCC1CCCC(F)(F)C1)c1cc(CCO)n2cccc(Cl)c12 (centres unmarked)" result="7.00 to 8.00"
compound="O=C(NCC1CCC(F)(F)CC1)c1cc(C2CCOC2)n2cccc(Cl)c12 (centres unmarked)" result="7.00 to 8.00"
compound="O=C(NCC1CCCC(F)(F)C1)c1cc(C2CCCO2)n2cccc(Cl)c12 (centres unmarked)" result="> 8.00"
compound="O=C(NCC1(O)CCCC(C(F)(F)F)C1)c1cc(C2CCC2)n2cccc(Cl)c12 (centres unmarked)" result="< 6.00"
compound="O=C(NCC1(O)CCCC(F)(F)C1)c1cc(C2CCOC2)n2cccc(Cl)c12 (centres unmarked)" result="7.00 to 8.00"
compound=COCCc1cc(C(=O)NCC2CCC(F)(F)CC2)c2c(Cl)cccn12 result="7.00 to 8.00"
compound=COCCc1cc(C(=O)NCC2CCC(F)(F)CC2)c2c(C)cccn12 result="6.30 to 7.00"

All values here come from patent US9931324B2.
